Recorded MBC values for a group of compounds are listed next.
system: Salmonella enterica subsp. enterica; assay: Antibacterial activity against bacterial sensory kinase PhoQ deficient Salmonella enterica serovar Typhimurium CS009 after 16 hrs by modified twofold broth microdilution method; type: functional, Salmonella enterica subsp. enterica serovar Typhimurium; conditions: CS009, 16 h
Where a SMILES comes first, the peptide text is derived from it.
TEST_READOUT: MBC (µg/mL)

[[record]]
compound = "CC(C)C[C@H](NC(=O)[C@H](CCCCN)NC(=O)[C@H](CCC(N)=O)NC(=O)[C@H](CC(N)=O)NC(=O)[C@H](CC(C)C)NC(=O)[C@H](CC(=O)O)NC(=O)[C@H](CCC(=O)O)NC(=O)[C@@H]1CCCN1C(=O)[C@@H](NC(=O)[C@H](C)NC(=O)CN)[C@@H](C)O)C(=O)N[C@@H](CO)C(N)=O (H-GATPEDLNQKLS-NH2)"
censoring_qualifier = ">"
experimental_result = 500

[[record]]
compound = "CC[C@H](C)[C@H](NC(=O)[C@H](CCCCN)NC(=O)[C@@H](NC(=O)[C@@H](NC(=O)[C@H](CCCNC(=N)N)NC(=O)[C@H](C)NC(=O)[C@H](CC(C)C)NC(=O)[C@@H](N)CCCNC(=N)N)[C@@H](C)CC)C(C)C)C(=O)N[C@@H](CCCNC(=N)N)C(=O)N[C@H](C(=O)N[C@@H](C)C(=O)N[C@@H](CCCNC(=N)N)C(N)=O)C(C)C (H-RLARIVKIRVAR-NH2)"
censoring_qualifier = "="
experimental_result = 13.1

[[record]]
compound = "CC[C@H](C)[C@H](NC(=O)[C@H](CCCNC(=N)N)NC(=O)[C@H](C)NC(=O)[C@H](CC(C)C)NC(=O)[C@@H](N)CCCNC(=N)N)C(=O)N[C@H](C(=O)N1CCC[C@H]1C(=O)N[C@H](C(=O)N[C@@H](CCCNC(=N)N)C(=O)N[C@H](C(=O)N[C@@H](C)C(=O)N[C@@H](CCCNC(=N)N)C(N)=O)C(C)C)[C@@H](C)CC)C(C)C (H-RLARIVPIRVAR-NH2)"
censoring_qualifier = "="
experimental_result = 46.7

[[record]]
compound = "CC[C@H](C)[C@H](NC(=O)[C@H](CCCNC(=N)N)NC(=O)[C@H](C)NC(=O)[C@H](CC(C)C)NC(=O)[C@@H](N)CCCNC(=N)N)C(=O)N[C@H](C(=O)N[C@H](C(=O)N[C@H](C(=O)N[C@@H](CCCNC(=N)N)C(=O)N[C@H](C(=O)N[C@@H](C)C(=O)N[C@@H](CCCNC(=N)N)C(N)=O)C(C)C)[C@@H](C)CC)C(C)C)C(C)C (H-RLARIVVIRVAR-NH2)"
censoring_qualifier = "="
experimental_result = 6.2

[[record]]
compound = "CC[C@H](C)[C@H](NC(=O)[C@H](CCCNC(=N)N)NC(=O)[C@H](Cc1c[nH]c2ccccc12)NC(=O)[C@H](CCCNC(=N)N)NC(=O)[C@@H](N)CCCNC(=N)N)C(=O)N[C@H](C(=O)N[C@H](C(=O)N[C@H](C(=O)N[C@@H](CCCNC(=N)N)C(=O)N[C@H](C(=O)N[C@@H](CCCNC(=N)N)C(=O)N[C@@H](CCCNC(=N)N)C(N)=O)C(C)C)[C@@H](C)CC)C(C)C)C(C)C (H-RRWRIVVIRVRR-NH2)"
censoring_qualifier = "="
experimental_result = 5.7

